Task for the reader: assign each of the following compounds its reported pIC50.
Molecular target: LecBPAO1 (Pseudomonas aeruginosa, UniProt Q9HYN5)
Sequence (Q9HYN5 entry or part of it): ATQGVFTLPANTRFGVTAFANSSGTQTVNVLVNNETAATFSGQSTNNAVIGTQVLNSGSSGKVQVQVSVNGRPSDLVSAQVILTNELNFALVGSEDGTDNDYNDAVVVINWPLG
Assay: biochemical
Assay type: binding, P. aeruginosa PAO1
Settings: IC50 for LecBPAO1, competitive binding assay
Procedure: To quantify the binding affinities of the carbohydrates we adapted the competitive binding assay for LecBPA14 (Fig. S5 ^†) previously described for LecBPAO1.[18] The competitive binding assay based on fluorescence polarization was performed as described previously for PAO1.[18] […] After addition of the reagents, the plate was incubated for 8–22 h at r.t. in a humidity chamber. […] The measured intensities were reduced by buffer values and fluorescence polarization was calculated. […]
Schema: pIC50 number; meaning minus log10 of the concentration expressed in molar units.

Item CC(=O)NC1C(OC2C(O)C(O)OC(CO)C2O)OC(CO)C(OC2OC(C)C(O)C(O)C2O)C1OC1OC(CO)C(O)C(O)C1O (centres unmarked) ; assay system LecBPAO1 (Pseudomonas aeruginosa, UniProt Q9HYN5); pIC50 reported as 6.78

Simply: CC(=O)NC1C(OC2C(O)C(O)OC(CO)C2O)OC(CO)C(OC2OC(CO)C(O)C(O)C2OC2OC(C)C(O)C(O)C2O)C1O (centres unmarked) , LecBPAO1 (Pseudomonas aeruginosa, UniProt Q9HYN5), pIC50 = 6.03

---

Answer each item with its documented pKd.
target: LecBPA14 (Pseudomonas aeruginosa, UniProt A0A0H2ZE85); test: biochemical; type: binding, P. aeruginosa PA14; details: Kd (LecBPA14), ITC, 25 °C
Sequence (A0A0H2ZE85 entry or part of it): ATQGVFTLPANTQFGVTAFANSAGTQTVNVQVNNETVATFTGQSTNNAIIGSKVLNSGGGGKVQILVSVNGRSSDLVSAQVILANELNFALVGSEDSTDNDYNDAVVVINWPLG
The scale used: pKd is minus the common logarithm of the concentration in molar units.

Just so you know, measured pKd for CC(=O)NC1C(OC2C(O)C(O)OC(CO)C2O)OC(CO)C(OC2OC(C)C(O)C(O)C2O)C1OC1OC(CO)C(O)C(O)C1O (centres unmarked) came out at 7.15

Notebook: CC(=O)NC1C(OC2C(O)C(O)OC(CO)C2O)OC(CO)C(OC2OC(CO)C(O)C(O)C2OC2OC(C)C(O)C(O)C2O)C1O (centres unmarked) , pKd read as 6.70

---

Assign IC50 to each entry below.
molecular target: LecBPA14 (Pseudomonas aeruginosa, UniProt A0A0H2ZE85); assay: biochemical
Express your answer in µM, writing the number without its unit.

OC1[C@H](O)COC[C@H]1O [Compound 7, 1-deoxy D-arabinose] has a reported IC50 of 6.8

The compound identified as OC[C@H]1OC[C@@H](O)[C@@H](O)[C@@H]1O [Compound 9, 1-deoxy D-mannose] registered its IC50 at 56

Reported IC50 ( CC(=O)NC1C(OC2C(O)C(O)OC(CO)C2O)OC(CO)C(OC2OC(C)C(O)C(O)C2O)C1OC1OC(CO)C(O)C(O)C1O (stereo not shown) [Compound 12, Lewis^a] ) = 0.078

Recorded IC50 (compound CO[C@@H]1OC[C@@H](O)[C@@H](O)[C@@H]1O [Compound 6, methyl β-D-arabinoside] ): 1.9

Measured IC50, CC(=O)NC1C(OC2C(O)C(O)OC(CO)C2O)OC(CO)C(OC2OC(CO)C(O)C(O)C2OC2OC(C)C(O)C(O)C2O)C1O (stereo not shown) [Compound 15, H type II] : 0.18

Measured IC50, CC(=O)NC1C(OC2C(O)C(O)OC(CO)C2O)OC(CO)C(O)C1OC1OC(CO)C(O)C(O)C1OC1OC(C)C(O)C(O)C1O (stereo not shown) [Compound 14, H type I] : 0.91

Lab book: IC50 of CC(=O)NC1C(OC2C(O)C(O)OC(CO)C2O)OC(CO)C(OC2OC(C)C(O)C(O)C2O)C1OC1OC(CO)C(O)C(O)C1OC1OC(C)C(O)C(O)C1O (stereo not shown) [Compound 16, Lewis^b] noted as 0.15

IC50 measured on OCC1OC(OC2C(O)C(O)OC(CO)C2O)C(O)C(O)C1O [Compound 11, α-1,3-D-mannosyl D-mannose] = 26

# IC50 (compound: OCC1OC(OC2C(O)OC(CO)C(O)C2O)C(O)C(O)C1O [Compound 10, α-1,2-D-mannosyl D-mannose] ) is 26

Quick note, IC50 for C[C@@H]1OC[C@@H](O)[C@H](O)[C@@H]1O [Compound 8, 1-deoxy L-fucose] landed at 0.61
